- assayedSystem: T1, human GM-CSFRα, full length on cells (human, UniProt P15509 23-400)
- T1 sequence: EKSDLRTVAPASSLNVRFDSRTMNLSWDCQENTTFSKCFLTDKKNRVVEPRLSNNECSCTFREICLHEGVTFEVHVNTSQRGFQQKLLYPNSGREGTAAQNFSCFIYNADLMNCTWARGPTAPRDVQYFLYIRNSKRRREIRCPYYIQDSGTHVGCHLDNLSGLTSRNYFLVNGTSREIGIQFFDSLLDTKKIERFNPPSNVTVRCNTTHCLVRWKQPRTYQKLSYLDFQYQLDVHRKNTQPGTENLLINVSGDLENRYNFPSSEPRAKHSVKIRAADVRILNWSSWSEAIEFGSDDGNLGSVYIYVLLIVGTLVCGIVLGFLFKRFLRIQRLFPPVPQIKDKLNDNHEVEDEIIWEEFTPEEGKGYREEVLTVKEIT
- procedureText: cell-based or functional assay
Quick reference for IC50, TF-1 cell proliferation among some binders
propertyMeasured: IC50, TF-1 cell proliferation (µg/mL)

{"binder": "E35-scFv LS52F (scFv, V domains shown) VH: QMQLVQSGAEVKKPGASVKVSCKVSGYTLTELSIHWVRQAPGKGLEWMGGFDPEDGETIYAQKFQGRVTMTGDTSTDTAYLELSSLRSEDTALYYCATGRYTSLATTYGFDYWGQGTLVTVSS VL: EIVMTQSPATLSLSPGERATLSCRASQSVSSYLAWYQQKPGQAPRLLIYGAFSRATGIPDRFSGSGSGTDFTLTISRLEPEDFAVYYCQQYDNWPYTFGQGTKLEIK", "propertyMeasured": "IC50, TF-1 cell proliferation", "measureUnit": "µg/mL", "observed": 0.167}
{"binder": "E35-scFv LA51M (scFv, V domains shown) VH: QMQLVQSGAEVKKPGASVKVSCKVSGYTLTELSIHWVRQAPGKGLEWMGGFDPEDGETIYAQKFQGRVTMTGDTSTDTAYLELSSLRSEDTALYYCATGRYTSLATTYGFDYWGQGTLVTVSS VL: EIVMTQSPATLSLSPGERATLSCRASQSVSSYLAWYQQKPGQAPRLLIYGMSSRATGIPDRFSGSGSGTDFTLTISRLEPEDFAVYYCQQYDNWPYTFGQGTKLEIK", "propertyMeasured": "IC50, TF-1 cell proliferation", "measureUnit": "µg/mL", "observed": 0.264}
{"binder": "E35-scFv LS26C (scFv, V domains shown) VH: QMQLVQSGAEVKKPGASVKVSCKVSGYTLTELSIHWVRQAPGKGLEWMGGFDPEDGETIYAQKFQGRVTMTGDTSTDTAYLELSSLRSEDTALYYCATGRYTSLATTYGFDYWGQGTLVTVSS VL: EIVMTQSPATLSLSPGERATLSCRACQSVSSYLAWYQQKPGQAPRLLIYGASSRATGIPDRFSGSGSGTDFTLTISRLEPEDFAVYYCQQYDNWPYTFGQGTKLEIK", "propertyMeasured": "IC50, TF-1 cell proliferation", "measureUnit": "µg/mL", "observed": 0.114}
